System: NCI-H460
Assay: NCI tumour cell line growth inhibition, 48 h
Activity calls are given as the source filed them. No stated cut-off is given here; in the data, active = GI50 up to about 1.1 µM and inactive = higher.
QUANTITY_MEASURED: GI50

Look at this compound and give its reported GI50. COC1OC(C)C(NC(=O)OCC(Cl)(Cl)Cl)C2OC(C)(C)OC12 (stereo not drawn)
> 100 µM (inactive)

What GI50 value was documented for this compound, CC(=O)OC/C=C/[C@H](O[Si](C)(C)C(C)(C)C)[C@@H](O)/C=C/COC(C)=O ?
> 100 µM (inactive)

Fill blank: measured GI50 of the compound CCC(C)c1cnc(CC(C)C)c(=O)[nH]1 (stereo not drawn) is ____.
> 100 µM (inactive)

Endpoint output: GI50 of CS(=O)(=O)CC1=Nc2nnc(CCCCCCCc3nnc4n3C(=O)C(CS(C)(=O)=O)=N4)n2C1=O . Value?
> 100 µM (inactive)

Record request: GI50 value, item C[C@@H]1OC(=O)C[C@H]2CC(=O)N(CCC3CN(S(=O)(=O)C(F)(F)F)c4ccc(Cc5ccc6c(c5)C(CCN5C[C@H]7[C@@H](CC(=O)O[C@H]7C)CC5=O)CN6S(=O)(=O)C(F)(F)F)cc43)C[C@@H]21 (stereo partly drawn)
> 100 µM (inactive)

Value lookup for GI50; key = COC(=O)c1c2c(cc3c1CC1(Cc4cc5c(c(C(C)=O)c4C1)CCC5)C3)CCC2 (stereo not drawn)
36.9 µM (inactive)

Give its GI50 value. Item: N#CCSc1c(-c2ccccc2)c(=O)n(-c2ccccc2)c(=S)n1-c1ccccc1
> 100 µM (inactive)

Which GI50 value is on record for CCN(CC(COc1ccc2c(c1)[n+]([O-])nc(N)[n+]2[O-])OC(C)=O)C(C)=O (stereo not drawn) ?
> 10 µM (inactive)

---

Test system: ACHN
Assay: NCI tumour cell line growth inhibition, 48 h
Calls of active or inactive are those of the source. Cut-off read from the data, not from the text of the source: active = GI50 up to about 1.1 µM and inactive = higher.
Please provide measured GI50 for the entries that follow.

Entry O=c1c2ccccc2[nH]c2c(Cl)cc(Cl)c(N3CCCCC3)c12 , system ACHN: what GI50 was measured?
23 µM (inactive)

Record CC(C)(C)c1cc(/C=C/C(=O)CC(=O)/C=C/c2cc(C(C)(C)C)c(O)c(C(C)(C)C)c2)cc(C(C)(C)C)c1O : what is its GI50 with ACHN?
> 50 µM (inactive)

Give ACHN GI50 for O=C(c1ccco1)N1CCN(C(=O)c2ccco2)C1=S
8.07 µM (inactive)

Which GI50 is reported with ACHN for this entry: c1ccc2c(c1)ccc1cc3cc(NCCCCNc4ccc5nc6c(ccc7ccccc76)cc5c4)ccc3nc12 ?
1.39 µM (inactive)

# returns recorded GI50 (system: ACHN) for O=C(O/N=C1/CCC/C1=C\c1ccccc1)c1ccc([N+](=O)[O-])cc1
> 100 µM (inactive)

Notebook entry, ACHN assay: GI50 of O=C1Cc2c(-c3cccs3)cc(-c3ccccc3)nc2-c2ccccc2N1 = ?
50.2 µM (inactive)

Query GI50 on ACHN for COc1ccc(N2C(=O)/C(=C\c3cc(OC)c(OC)c(OC)c3)S(=O)(=O)C2c2ccccc2)cc1 (stereo not given)
48.3 µM (inactive)

Recall the recorded GI50 for C=C1C(=O)C23[C@H](O)C1CC[C@H]2[C@]12COC3(O)[C@@H](O)[C@@H]1C(C)(C)CC[C@@H]2O with ACHN and state it.
16.1 µM (inactive)

Given the entry Cc1ccc(NC(=O)/C(=N/N(C)C)C(C2OC(=O)c3ccccc32)[N+](=O)[O-])cc1 (stereo not given) , what GI50 was observed with ACHN?
> 100 µM (inactive)

Query the reported GI50 for ACHN; item: Cc1c(Cl)c(=O)oc2cc(OCC(=O)c3ccccc3)ccc12
> 100 µM (inactive)

Form field: GI50 recorded for COC1OC(CO)C(O)C(OC(C)=O)C1NC(=O)N(CCCl)N=O (stereo not given) with ACHN (enter value)
> 100 µM (inactive)

Item O=C1CC2C=CC1C2CO (stereo not given) with ACHN - GI50?
> 100 µM (inactive)

# get_value(readout= GI50, system= ACHN) for O=C1/C(=C/c2cccnc2)C(n2cccc2)c2c(Br)sc(Br)c21 (stereo not given)
3.28 µM (inactive)

Return GI50 measured with ACHN given this compound: CCOC(=O)C(=Cn1c(=S)[nH]c2ccc([N+](=O)[O-])cc21)C(=O)OCC
> 100 µM (inactive)

Kindly state the measured GI50 obtained for COc1ccc(-c2c(C#N)c(O)n(NS(=O)(=O)c3ccc(C)cc3)c(=O)c2C#N)cc1 with ACHN.
47.9 µM (inactive)

Request: GI50, test system ACHN, entry CCOP(=O)(CN=C(c1ccccc1)c1ccccc1)OCC
> 100 µM (inactive)

Give GI50 (ACHN) of the following compound: CCCCCC(=O)OCC1(CO)C/C(=C/CC(C(C)C)C(C)C)C(=O)O1 (stereo not given)
58.5 µM (inactive)

Request - read-out GI50 | tested on ACHN | compound COc1ccc(N2C(=O)/C(=C\c3cccc(Oc4ccccc4)c3)SC2c2ccccc2)cc1 (stereo not given)
> 100 µM (inactive)

Which measured GI50 belongs to Cc1c(C(=O)OCc2ccccc2)[n+]([O-])c2cc(Cl)c(Cl)cc2[n+]1[O-] , tested on ACHN?
21.4 µM (inactive)

For ACHN, provide GI50 of O=c1c(-c2ccccc2)c2oc(c1-c1ccccc1)CS(=O)(=O)CCC2 please.
29 µM (inactive)
